For each entry below, report its protein stability index value.
B1: IKZF1 (parent)
chain: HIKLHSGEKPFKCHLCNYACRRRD

- Variants of: B1
- assay.info: protein stability index of a GFP-peptide fusion (GPS, HEK-293T) (PSI 1-6); higher = more stable;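 also: lentivirally expressed fusions sorted by FACS into six bins by GFP to DsRed ratio, PSI derived from sequencing read proportions per bin multiplied by bin number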
- condition.context: c terminus: a fixed tail appended
In your answer, state the number alone without any accompanying words.

Return reported protein stability index. Input variant: G7T 1.15

Return reported protein stability index. Input variant: K3H 2.44

Return reported protein stability index. Input variant: S6N 3.35

Return reported protein stability index. Input variant: K12F 2.25

Return reported protein stability index. Input variant: C13Y 1.77

Return reported protein stability index. Input variant: H1Y 1.95

Return reported protein stability index. Input variant: Y18M 2.17

Return reported protein stability index. Input variant: A19Y 1.32

Return reported protein stability index. Input variant: G7H 1.97

Return reported protein stability index. Input variant: L15T 2.92

Return reported protein stability index. Input variant: F11Q 2.41

Return reported protein stability index. Input variant: F11P 1.67

Return reported protein stability index. Input variant: K3I 1.61

Return reported protein stability index. Input variant: H5Q 1.78

Return reported protein stability index. Input variant: K9E 2.02

Return reported protein stability index. Input variant: R21G 2.41

Return reported protein stability index. Input variant: N17W 1.62

Return reported protein stability index. Input variant: I2K 1.86

Return reported protein stability index. Input variant: L4T 1.63

Return reported protein stability index. Input variant: K3V 1.83

Return reported protein stability index. Input variant: C16A 2.04

Return reported protein stability index. Input variant: I2V 1.47

Return reported protein stability index. Input variant: D24A 2.29

Return reported protein stability index. Input variant: L15D 1.74

Return reported protein stability index. Input variant: R23P 2.02

Return reported protein stability index. Input variant: E8A 1.92

Return reported protein stability index. Input variant: G7V 3.09

Return reported protein stability index. Input variant: K9T 1.42

Return reported protein stability index. Input variant: H14Q 1.83

Return reported protein stability index. Input variant: P10W 2.31

Return reported protein stability index. Input variant: A19G 1.49

Return reported protein stability index. Input variant: F11Y 1.52

Return reported protein stability index. Input variant: R22F 2.03

Return reported protein stability index. Input variant: G7M 1.78

Return reported protein stability index. Input variant: C16E 3.02

Return reported protein stability index. Input variant: N17A 2.67

Return reported protein stability index. Input variant: L4Y 2.52

Return reported protein stability index. Input variant: S6K 1.82

Return reported protein stability index. Input variant: H5S 1.18

Return reported protein stability index. Input variant: N17V 2.39

Return reported protein stability index. Input variant: C13V 2.21

Return reported protein stability index. Input variant: D24C 2.22

Return reported protein stability index. Input variant: R23M 2.4

Return reported protein stability index. Input variant: R23Q 1.71

Return reported protein stability index. Input variant: R21C 1.78

Return reported protein stability index. Input variant: P10D 2.14

Return reported protein stability index. Input variant: R22T 2.5

Return reported protein stability index. Input variant: K12D 1.68

Return reported protein stability index. Input variant: K3N 2.11

Return reported protein stability index. Input variant: K12T 1.68

Return reported protein stability index. Input variant: Y18S 1.58

Return reported protein stability index. Input variant: K12H 1.7

Return reported protein stability index. Input variant: L15K 2.68

Return reported protein stability index. Input variant: P10I 2.19

Return reported protein stability index. Input variant: C13P 2.97

Return reported protein stability index. Input variant: K12A 1.77

Return reported protein stability index. Input variant: K12Y 2.13

Return reported protein stability index. Input variant: H14C 3.78

Return reported protein stability index. Input variant: H1N 2.73

Return reported protein stability index. Input variant: D24M 1.97

Return reported protein stability index. Input variant: R21E 2.27

Return reported protein stability index. Input variant: D24S 1.43

Return reported protein stability index. Input variant: R21W 1.49

Return reported protein stability index. Input variant: K12V 2.21

Return reported protein stability index. Input variant: D24I 2.89

Return reported protein stability index. Input variant: F11T 1.85

Return reported protein stability index. Input variant: K3F 2.38

Return reported protein stability index. Input variant: D24R 2.22

Return reported protein stability index. Input variant: Y18K 1.99

Return reported protein stability index. Input variant: H5V 1.78

Return reported protein stability index. Input variant: K3L 1.99
